Target: Cytochrome P450 1A2 (Homo sapiens, UniProt P05177)
Sequence (P05177 whole entry): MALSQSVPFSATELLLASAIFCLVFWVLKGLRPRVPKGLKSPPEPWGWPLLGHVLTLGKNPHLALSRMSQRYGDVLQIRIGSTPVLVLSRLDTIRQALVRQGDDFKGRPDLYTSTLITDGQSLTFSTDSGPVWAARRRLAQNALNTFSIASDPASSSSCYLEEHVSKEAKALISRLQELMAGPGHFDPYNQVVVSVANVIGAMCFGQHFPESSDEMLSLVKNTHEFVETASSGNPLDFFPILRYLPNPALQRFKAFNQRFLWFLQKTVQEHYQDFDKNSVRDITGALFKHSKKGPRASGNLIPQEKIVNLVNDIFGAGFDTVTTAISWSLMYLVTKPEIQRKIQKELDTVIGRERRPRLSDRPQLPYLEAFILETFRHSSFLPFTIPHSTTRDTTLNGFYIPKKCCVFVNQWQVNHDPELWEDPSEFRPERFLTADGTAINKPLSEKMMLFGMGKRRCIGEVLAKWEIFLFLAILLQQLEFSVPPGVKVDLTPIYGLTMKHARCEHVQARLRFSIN
Test: Inhibition of recombinant human CYP1A2
Assay type: ADME
pIC50: −log10 of the molar value.
Could you please report measured pIC50 for the items listed next?

Below are some molecules; for each one, tell me its pIC50.
1. COc1ccccc1C1CN(c2nc(-c3ccncc3)cc(=O)n2C)CCN1 (racemic)
2. COc1cccc(C2CN(c3nc(-c4ccncc4)cc(=O)n3C)CCN2)c1 (racemic)

[out]
1. < 4.30
2. < 4.30

====

Target: UniProt P10635
Sequence (P10635 whole entry): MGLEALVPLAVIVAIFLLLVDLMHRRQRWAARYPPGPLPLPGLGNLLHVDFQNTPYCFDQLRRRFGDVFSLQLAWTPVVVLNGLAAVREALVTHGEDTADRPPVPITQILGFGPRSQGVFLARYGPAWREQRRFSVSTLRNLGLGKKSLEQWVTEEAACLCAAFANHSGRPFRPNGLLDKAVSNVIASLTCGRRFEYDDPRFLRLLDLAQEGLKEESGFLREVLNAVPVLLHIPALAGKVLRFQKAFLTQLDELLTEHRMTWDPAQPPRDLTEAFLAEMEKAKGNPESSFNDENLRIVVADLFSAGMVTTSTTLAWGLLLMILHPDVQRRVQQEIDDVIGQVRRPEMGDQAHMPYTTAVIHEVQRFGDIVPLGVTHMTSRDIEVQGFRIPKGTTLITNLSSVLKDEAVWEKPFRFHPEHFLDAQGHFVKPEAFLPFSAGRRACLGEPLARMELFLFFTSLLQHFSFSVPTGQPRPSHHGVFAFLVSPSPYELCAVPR
Assay: Inhibition of recombinant human CYP2D6
Type: ADME
Could you please report measured IC50 for the items listed next?
Numbers only, in nM.

Recorded IC50, per entry:
[in] Bench note: what IC50 did COc1cccc(C2CN(c3nc(-c4ccncc4)cc(=O)n3C)CCN2)c1 (racemic) show?
[out] 400

[in] Bench note: what IC50 did COc1cc(F)ccc1C1CN(c2nc(-c3ccncc3)cc(=O)n2C)CCN1 (racemic) show?
[out] 1800

[in] Bench note: what IC50 did COc1cc(F)ccc1C1CN(c2nc(-c3ccncc3)cc(=O)n2C)CCN1 (single isomer, unassigned; enantiomer 2) show?
[out] 6000

[in] Bench note: what IC50 did COc1cc(F)ccc1C1CN(c2nc(-c3ccncc3)cc(=O)n2C)CCN1 (single isomer, unassigned; enantiomer 1) show?
[out] 1000

Below are some compounds; for each one, tell me its IC50.
1. COc1cc(F)ccc1C1CN(c2nc(-c3ccncn3)cc(=O)n2C)CCN1 (racemic)
2. COc1cc(F)ccc1C1CN(c2nc(-c3ccncn3)cc(=O)n2C)CCN1 (single isomer, unassigned; Enantiomer-1)
3. COc1cc(F)ccc1C1CN(c2nc(-c3ccncn3)cc(=O)n2C)CCN1 (single isomer, unassigned; enantiomer 2)

[out]
1. 2700
2. 3400
3. 9100

====

Target: Glycogen synthase kinase-3 beta (Homo sapiens)
Sequence (P49841 whole entry): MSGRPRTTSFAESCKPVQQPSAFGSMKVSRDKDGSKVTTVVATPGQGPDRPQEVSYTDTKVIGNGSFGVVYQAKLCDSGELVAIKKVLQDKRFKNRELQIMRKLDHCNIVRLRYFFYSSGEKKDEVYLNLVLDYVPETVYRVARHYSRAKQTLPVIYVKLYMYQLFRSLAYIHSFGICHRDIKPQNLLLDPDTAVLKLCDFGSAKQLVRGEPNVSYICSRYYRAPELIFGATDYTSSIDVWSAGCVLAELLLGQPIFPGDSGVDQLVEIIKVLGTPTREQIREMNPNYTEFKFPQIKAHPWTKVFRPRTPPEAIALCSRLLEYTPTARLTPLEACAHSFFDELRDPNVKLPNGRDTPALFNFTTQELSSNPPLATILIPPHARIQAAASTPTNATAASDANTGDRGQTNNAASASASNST
Assay: Inhibition of recombinant human GSK-3beta using prephosphorylated GS-1 peptide as substrate after 1 hr in presence of [gamma-32P]ATP by liquid scintillation spectrometric method
PROPERTY_MEASURED: pIC50
Give bare numbers, as −log10 of the molar value.

Recorded pIC50, per entry:
[in] Bench note: what pIC50 did CCOc1ccccc1C1CN(c2nc(-c3ccncn3)cc(=O)n2C)CCN1 (centres undefined) show?
[out] 7.70

[in] Bench note: what pIC50 did COc1cc(F)ccc1C1CN(c2nc(-c3ccncc3)cc(=O)n2C)CCN1C(C)=O (centres undefined) show?
[out] 5.77

[in] Bench note: what pIC50 did COc1cc(F)ccc1C1CN(c2nc(-c3ccncn3)cc(=O)n2C)CCN1C (centres undefined) show?
[out] 7.59

Below are some compounds; for each one, tell me its pIC50.
1. COc1cc(F)ccc1C1CN(c2nc(-c3ccncc3)cc(=O)n2C)CCN1C (centres undefined)
2. Cn1c(N2CCNC(c3ccc(Cl)c(Cl)c3)C2)nc(-c2ccncn2)cc1=O (centres undefined)
3. Cn1c(N2CCN[C@@H](c3ccc(Cl)cc3)C2)nc(-c2ccncc2)cc1=O
4. COc1cc(F)ccc1C1CN(c2nc(-c3ccncc3)cc(=O)n2C)CCN1 (single isomer, unassigned; enantiomer 1)
5. COc1ccc(C2CN(c3nc(-c4ccncn4)cc(=O)n3C)CCN2)cc1 (racemic)
6. COc1cccc(C2CN(c3nc(-c4ccncn4)cc(=O)n3C)CCN2)c1 (racemic)

[out]
7.25
8.64
7.96
7.27
8.46
8.17
